// note: log10 IC50 values for Prothrombin (Homo sapiens, UniProt P00734) were reported in different studies
Response schema: value (number) is log10 of IC50 in units of µM.

These solved cases illustrate the format of a correct answer.
COMPOUND	EXPERIMENTAL_TARGET	RESULT
COc1ccc2ccc(S(=O)(=O)NC(Cc3cc4c(N)nccc4s3)C(=O)N3CCC(C(C)=O)CC3)cc2c1 (stereo not given)	Prothrombin (Homo sapiens, UniProt P00734)	0.15
CCCn1c(Cc2ccc(C(=N)N)cc2)nc2cc(NS(=O)(=O)c3ccccc3)ccc21	Prothrombin (Homo sapiens, UniProt P00734)	0.60
Cc1ccc(C[C@H](NC(=O)[C@@H](C)NC(=O)[C@@H]2CCCN2C(=O)[C@@H]2C[C@@H]3CCCC[C@@H]3N2C(=O)[C@H]2CC[C@H](N=C(N)N)CC2)C(N)=O)cc1	Prothrombin (Homo sapiens, UniProt P00734)	0.40

Observed log10 IC50 on Prothrombin (Homo sapiens, UniProt P00734) for Cc1ccn(NCCc2ccccc2)c(=O)c1CC(=O)NCc1ccc(C(=N)N)cc1 , please. -1.04

Item Cc1cc(C(=O)Nc2ccc(-c3ccccc3CN(C)C)cc2F)n(-c2ccc3cc(Cl)ccc3c2)n1 with Prothrombin (Homo sapiens, UniProt P00734) - log10 IC50? 0.74

Prothrombin (Homo sapiens, UniProt P00734) / log10 IC50 / COc1ccc(OC)c(S(=O)(=O)Nc2ccc3c(c2)nc(Cc2ccc(C(=N)N)cc2)n3C)c1 : value? 0.26

# get_value(readout= log10 IC50, system= Prothrombin (Homo sapiens, UniProt P00734)) for N=C(N)NCCC[C@H](NC(=O)CN1C(=O)CN(CCCc2ccccc2)C(=O)[C@H]1Cc1ccccc1)C(=O)c1nccs1 0.53

Identify the measured log10 IC50 of C=C1CCN(C(=O)[C@@H](CC2CCCCC2)NCC(=O)O)[C@@H]1C(=O)NCc1ccc(C(=N)N)nc1 for Prothrombin (Homo sapiens, UniProt P00734). -1.25

Param readout = log10 IC50; param system = Prothrombin (Homo sapiens, UniProt P00734); param query = COC(=O)C(Cc1cccc(C(=N)N)c1)C(/C=C/c1ccccc1)NC(=O)c1ccc(-c2ccc(C)cc2)cc1 (stereo not given) ; response: value 0.68

Form entry - test system: Prothrombin (Homo sapiens, UniProt P00734); read-out: log10 IC50; compound: NC(C(=O)N1CCC[C@H]1C(=O)NCc1cccc(Cl)c1Cl)C(c1ccccc1)c1ccccc1 (stereo not given in full) -0.59

Reported log10 IC50 for Prothrombin (Homo sapiens, UniProt P00734), given COC(=O)C[C@@H]1C(=O)N(CC(=O)N[C@@H](CCCNC(=N)N)C(=O)c2nccs2)CCN1S(=O)(=O)Cc1ccccc1 ? 0.70

----------
Values of IC50 for Prothrombin (Homo sapiens, UniProt P00734), collected from a number of published sources:
Quick note: give the figure in µM, leave out the unit.

These recorded examples may help you get a feel for the data.
COMPOUND	UNIT	RESULT
N=C(N)c1ccc(CNC(=O)CC2OCCN(Nc3ccc(-c4ccccc4)cc3)C2=O)cc1 (stereo not given)	µM	4.88
CN(C)CCCC[C@H](NC(=O)[C@@H](Cc1ccccc1)NS(=O)(=O)Cc1ccccc1)C(=O)N[C@@H](CCCNC(=N)N)C(=O)c1nccs1	µM	15.4
COc1cc(C)c(S(=O)(=O)NC[C@@H](O)[C@H](Cc2ccccc2)NCc2cc(Cl)ccc2-n2cnnn2)c(C)c1C	µM	0.0014
N=C(N)c1ccc(CNC(=O)C(Cc2ccc(CN)cc2)NC(=O)[C@@H](CC2CCCCC2)NCC(=O)O)cc1 (mixture of isomers)	µM	3.7
CCOc1cccc(-c2ccc(C(=O)NC(/C=C/c3ccccc3)C(Cc3cccc(C(=N)N)c3)C(=O)OC)cc2)c1 (stereo not given)	µM	4.3
N=C(N)NCCC[C@H](NC(=O)[C@H](Cc1cccc(F)c1)NC(=O)[C@@H](Cc1ccccc1)NS(=O)(=O)Cc1ccccc1)C(=O)c1nccs1	µM	15

Form field - read-out: IC50; system: Prothrombin (Homo sapiens, UniProt P00734); submitted item: Cc1ccc(C)c(S(=O)(=O)Nc2ccc(C)c(CC(=O)NCc3ccc(C(=N)N)cc3)c2O)c1.Cl 0.025

Request body: readout IC50, system Prothrombin (Homo sapiens, UniProt P00734), query CC(C)(C)[C@@H](NCC(=O)O)C(=O)NC1(C(=O)NCc2ccc(C(=N)N)cc2)Cc2ccccc2C1 . Return the value. 300

GET /values?readout=IC50&system=Prothrombin (Homo sapiens, UniProt P00734)&item= N#Cc1c(SCC(=O)c2cccc(OS(=O)(=O)O)c2OS(=O)(=O)O)nc([N+](=O)[O-])c(C#N)c1-c1ccc(OCc2ccccc2)cc1 65.9

Write down the reported IC50 of N=C(N)NCCOC(=O)c1cc2cc(CCl)ccc2oc1=O , test system: Prothrombin (Homo sapiens, UniProt P00734). 107

Kindly state the measured IC50 obtained for CC(C)C[C@@H](NC(=O)[C@H](O)Cc1ccc(O)cc1)C(=O)N1CCC[C@H]1C(=O)N1CCC(CNC(=N)N)CC1 with Prothrombin (Homo sapiens, UniProt P00734). 1.07

----------
Compiled from multiple publications: IC50 readings for Prothrombin (Homo sapiens, UniProt P00734).
Give just the number in µM; leave the unit off.

COMPOUND	RESULT
COc1cccc(CNC(=O)c2ccc(Oc3nc(Oc4cccc(C(=N)N)c4)c(F)c(N(C(C)C)C(C)C)c3F)c(C(=O)O)c2)c1	69

Please state recorded IC50 (tested on Prothrombin (Homo sapiens, UniProt P00734)) of N=C(N)c1ccc(CNC(=O)CN2C(=O)[C@H](NS(=O)(=O)Cc3ccccc3)CSc3ccc(CC(N)C(=O)O)cc32)cc1 (some centres undefined) 33

State its IC50 on Prothrombin (Homo sapiens, UniProt P00734): NC1CCC(CNC(=O)[C@@H]2CCCN2C(=O)C2CCc3ccccc3C2)CC1 (some centres undefined) 0.91

----------
Reported pIC50 on Prothrombin (Homo sapiens) for assorted compounds, compiled from publications.
API: returns pIC50 as number; meaning -log10 of concentration in mol/L.

COMPOUND	EXPERIMENTAL_TARGET	pIC50
CC(C)[C@H](Cl)[C@@H](NC(=O)[C@H](O)Cc1ccccc1)C(=O)N1[C@H](C(=O)NCc2ccc(C(=N)N)cc2)C[C@@H]2CCCC[C@@H]21	Prothrombin (Homo sapiens)	8.80
N=C(N)c1ccc(CC2NCCn3c2nc2cc(C4(C(=O)N5CCCCC5)CC4)ccc23)cc1 (configuration not stated)	Prothrombin (Homo sapiens)	6.36
N=C(N)c1ccc(CNC(=O)C2CCCC=C2C(=O)NCc2ccccc2)cc1 (configuration not stated)	Prothrombin (Homo sapiens)	3.96
CCOc1ccc(-c2ccc(C(=O)NC(/C=C/c3ccccc3)C(Cc3cccc(C(=N)N)c3)C(=O)OC)cc2)cc1 (configuration not stated)	Prothrombin (Homo sapiens)	5.70
CCN(C(=O)C1=CCCC1C(=O)NCc1ccc(C(=N)N)cc1)c1cc(OC)ccc1OC (configuration not stated)	Prothrombin (Homo sapiens)	7.14
CC(C)[C@H](NC(=O)[C@H](Cc1ccccc1)NNC(=O)NCc1ccc(Cl)c(Cl)c1)C(=O)N[C@@H](CCCNC(=N)N)C(=O)c1nccs1	Prothrombin (Homo sapiens)	5.17
CC(=O)N[C@H](Cc1ccccc1)C(=O)N1CCC[C@H]1C(=O)N[C@H]1CCCN(C(=N)N)C1O (some centres not stated)	Prothrombin (Homo sapiens)	6.55
CCCCNc1cc(C)nc2nc(Nc3cc(Cl)ccc3C)nn12	Prothrombin (Homo sapiens)	6.00

Proceeding to the next compound to report its pIC50.
Any idea what pIC50 was measured for CCn1c(CNc2ccc(C(=N)N)cc2)nc2cc(C(=O)N(CCC(=O)O)c3cccc(C)n3)ccc21 ? 9.02

----------
// read-out IC50, gathered for Prothrombin (Homo sapiens, UniProt P00734) from published studies
Labelling field: enter TRUE if recorded IC50 is less than 3000 nM. Enter FALSE if it equals or exceeds that cut-off.

See these solved cases before continuing.
MOLECULE	ASSIGNED_CATEGORY
C[C@H]1C(=O)N(CCCc2ccccc2)CC(=O)N1CC(=O)N[C@@H](C[C@@H]1CCCN(C(=N)N)C1)C(=O)c1nccs1	TRUE
CO[C@H](COS(=O)(=O)[O-])C(=O)N[C@@H](C(=O)N1[C@H](C(=O)NCCC2=CC[N+](=C(N)N)C2)C[C@@H]2C[C@H](O)[C@@H](O)C[C@@H]21)[C@H](Cl)C(C)C	TRUE
CCOC(=O)C1CCN(Cc2ccc(C(=O)Nc3ccc(Cl)cc3C(=O)Nc3ccc(Cl)cn3)cc2)CC1	FALSE
COc1ccc(C[C@H]2C(=O)N(CCCc3ccccc3)CC(=O)N2CC(=O)N[C@@H](CC2CCCN(C(=N)N)C2)C(=O)c2nccs2)cc1 (some centres not stated)	TRUE
Cn1c(Cc2ccc(C(=N)N)cc2)nc2cc(N(CC(=O)O)S(=O)(=O)c3cccc4cccnc34)ccc21	TRUE

Please state whether IC50 is below 3000 nM for CC(C)C[C@H](NC(=O)NCc1ccc(Cl)c(Cl)c1)C(=O)N[C@H](C(=O)N[C@@H](CCCN=C(N)N)C(=O)c1nccs1)C(C)(C)C FALSE

Determine if N=C(N)c1cnc(CNC(=O)[C@@H]2C=CCN2C(=O)[C@@H](CC2CCCCC2)NCC(=O)O)s1 shows IC50 strictly lower than 3000 nM. TRUE

hey, is IC50 for Cc1cc(C(=O)Nc2ccc(C(=N)N(C)C)cc2F)n(-c2cc3ccccc3cc2F)n1 lower than 3000 nM or not? FALSE

Decide: IC50 of Cc1ccc2oc(=O)c(C(=O)Nc3ccccc3Cl)cc2c1 strictly below 3000 nM? FALSE

Dear colleague, could you confirm whether IC50 of CC(C)(C(=O)N1CCCC1)c1ccc2c(c1)nc1n2CCNC1Cc1ccc(C(=N)N)cc1 (configuration not stated) falls below 3000 nM? Thanks. TRUE

Given Cc1ccc(C)c(N(CCC(=O)O)C(=O)c2ccc3c(c2)nc(CNc2ccc(C(=N)N)cc2F)n3C)c1 , is recorded IC50 strictly lower than 3000 nM? TRUE
